System: MCF-7
Assay Overview: SRB cell viability after siRNA transfection
Assay type: cell-based, human
Measurement Setup: 40 nM siRNA, day 5 post-transfection, normalized over siCONTROL
Method: Different normal breast and breast cancer cell lines were used for siRNA transfection. Cells were seeded at various concentrations, ranging from 1500 to 6000 per well according to cell growth rate, into 96 well plates. […] SRB assay was performed to assess cell survival. […] Absorbance was read at 570 mn. The cell survival percentage after each siRNA(s) knock down was calculated over the non-silencing control siCTRL or siPOOL as well as siTOX as a transfection efficiency control. […]
Overview of reported % survival across a group of substances:
Respond numerically; units are % and should not be typed.

[[record]]
substance = "siRNA #4: siRNA targeting human TTK: 5′-GAUAAGAUCAUCCGACUUU-3′ (SEQ ID NO: 6) (listed as RNA, chemistry not given here)"
assay_endpoint = "% survival"
endpoint_value = 0.63


Tell us which % survival value is on record for siRNA #1: siRNA targeting human TTK: 5′-GCAAUACCUUGGAUGAUUA-3′ (SEQ ID NO: 3) (listed as RNA, chemistry not given here)
0.27

Tell us which % survival value is on record for siRNA #2: siRNA targeting human TTK: 5′-GGUAUUAACUGCCCAAGAA-3′ (SEQ ID NO: 4) (listed as RNA, chemistry not given here)
0.27

Tell us which % survival value is on record for siRNA #3: siRNA targeting human TTK: 5′-GCACGUGACUACUUUCAAA-3′ (SEQ ID NO: 5) (listed as RNA, chemistry not given here)
0.23
